System: MCF-7
assay.text: Inhibition of cell proliferation (IC50, MTS)
Format: cell-based
run.parameters: Homo sapiens, MCF7; MCF-7, 24 h
metric: IC50 (µM)
Numbers only, in µM.

Answer with the recorded IC50 for the compound listed here: COc1cc(/C=C/C(=O)CC(=O)/C=C/c2ccc(O)c(OC)c2)ccc1O [Curcumin, reference compound]
27

====

Test system: MDA-MB-231
assay.text: Inhibition of cell proliferation (IC50, MTS)
Format: cell-based
run.parameters: Homo sapiens, MDA-MB-231, 24 h
metric: IC50 (µM)
Give bare numbers, in µM.

Answer with the recorded IC50 for the compound listed here: COc1cc(/C=C/C(=O)CC(=O)/C=C/c2ccc(O)c(OC)c2)ccc1O [Curcumin, reference compound]
32
